# subject of test: PYL2 + HAB1 (Arabidopsis thaliana, UniProt O80992)
# Construct: made in house; host or cells: E. coli BL21 (DE3)
# Sequence (O80992 14-188 limits assumed): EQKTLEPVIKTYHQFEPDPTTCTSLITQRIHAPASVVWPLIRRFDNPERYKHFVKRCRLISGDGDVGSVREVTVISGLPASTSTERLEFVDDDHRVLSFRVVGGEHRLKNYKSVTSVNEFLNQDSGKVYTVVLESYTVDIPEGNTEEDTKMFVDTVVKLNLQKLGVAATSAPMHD
# Sequence (Q9CAJ0 172-511 partner limits assumed): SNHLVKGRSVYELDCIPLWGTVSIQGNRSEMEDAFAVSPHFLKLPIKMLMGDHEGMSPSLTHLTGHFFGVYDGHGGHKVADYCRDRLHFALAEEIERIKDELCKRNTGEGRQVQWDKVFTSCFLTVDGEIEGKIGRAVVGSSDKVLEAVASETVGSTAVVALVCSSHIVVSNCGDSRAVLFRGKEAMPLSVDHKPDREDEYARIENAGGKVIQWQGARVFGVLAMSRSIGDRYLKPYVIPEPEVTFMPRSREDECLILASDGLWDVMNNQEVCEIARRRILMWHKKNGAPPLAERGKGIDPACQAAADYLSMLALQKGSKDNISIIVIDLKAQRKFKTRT
# method notes: AlphaScreen experiment, PYL2 + HAB1
# Type: binding
# reported conditions: number in brackets; read-out: Half maximum effect concentration EC50 (PYL2 + HAB1)
assay metric: EC50 (nM)

A: CCCN1C(=O)CCc2cc(NS(=O)(=O)Cc3ccc(Cl)cc3F)ccc21
B: CCCN1C(=O)CCc2cc(NS(=O)(=O)Cc3ccc(C)c(F)c3)ccc21 [Compound 0604c]
Sorting by EC50 in descending order, would A or B appear first? Identify your pick by its label.
A

A: CCCN1C(=O)CCc2cc(NS(=O)(=O)Cc3ccc(C(F)(F)F)c(F)c3)ccc21 [Compound 1020A]
B: CCCN1C(=O)CCc2cc(NS(=O)(=O)Cc3ccc(C)c(Cl)c3)ccc21 [Compound 1103B]
When the recorded EC50 values are compared, which is smaller: that of A or that of B ? // caller expects the label of the chosen entry
B
